- Target Desc: Coagulation factor VII (Homo sapiens, UniProt P08709)
- Sequence (P08709 whole entry): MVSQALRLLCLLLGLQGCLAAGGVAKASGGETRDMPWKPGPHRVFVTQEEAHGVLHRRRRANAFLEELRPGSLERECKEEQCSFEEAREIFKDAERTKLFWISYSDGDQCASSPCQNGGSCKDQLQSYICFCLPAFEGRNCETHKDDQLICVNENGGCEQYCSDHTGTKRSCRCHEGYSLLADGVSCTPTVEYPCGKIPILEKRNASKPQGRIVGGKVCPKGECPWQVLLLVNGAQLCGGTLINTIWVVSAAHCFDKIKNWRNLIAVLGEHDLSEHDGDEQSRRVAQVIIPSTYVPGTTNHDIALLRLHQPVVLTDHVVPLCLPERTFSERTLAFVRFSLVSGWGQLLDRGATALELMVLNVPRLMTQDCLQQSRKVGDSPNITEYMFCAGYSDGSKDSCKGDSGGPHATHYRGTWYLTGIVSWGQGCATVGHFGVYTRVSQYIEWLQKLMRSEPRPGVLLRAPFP
Multi-source literature compilation: Ki on Coagulation factor VII (Homo sapiens, UniProt P08709).
Assay Endpoint: Ki (nM)

CO[C@H](COS(=O)(=O)[O-])C(=O)N[C@H](C(=O)N1[C@H](C(=O)NCCC2=CC[N+](=C(N)N)C2)C[C@@H]2C[C@H](O)[C@@H](O)C[C@@H]21)C(C)C : 124
C[C@]1(c2ccccc2)C[C@@H](c2cc(NC(=O)C3CC3)cc(-c3ccc(C(N)=O)cc3C(=O)O)c2)Nc2ccc(C(=N)N)cc21 (racemic) : 474
Cc1cccc(C(=O)Nc2ccc(C(C)NC(=O)CNC(=O)Nc3ccc(C(=N)N)cc3)cc2)c1 (configuration not stated) : 26
CC1(C)[C@@H]2C[C@H]3OB([C@H](CCCCN)NC(=O)Cn4nc(CC#N)nc4Cc4ccccc4)O[C@@]3(C)[C@H]1C2 : 4200
C[C@]1(c2ccccc2)C[C@@H](c2cccc(-c3ccc(C(=O)O)cc3C(=O)O)c2)Nc2ccc(C(=N)N)cc21 (racemic) : 2600
N#Cc1cccc(-c2cc(C(CC(=O)O)C(=O)O)cc(-c3nc4cc(C(=N)N)ccc4[nH]3)c2O)c1 (configuration not stated) : 77

1: CC(NC(=O)CNC(=O)Nc1ccc(C(=N)N)cc1)c1ccc(Cl)c(Cl)c1 (configuration not stated)
2: Nc1ccc2[nH]c(-c3cc(CC(=O)O)cc(-c4cccc(O)c4)c3O)cc2n1
Exam item: Compare Ki: is it lower for 1 or for 2 ? Refer to your chosen entry by its label in the reply.
Marked response: 1

* * *

Multi-source literature compilation: Ki on Coagulation factor VII (Homo sapiens).
- Target Desc: Coagulation factor VII (Homo sapiens)
- Sequence (P08709 whole entry): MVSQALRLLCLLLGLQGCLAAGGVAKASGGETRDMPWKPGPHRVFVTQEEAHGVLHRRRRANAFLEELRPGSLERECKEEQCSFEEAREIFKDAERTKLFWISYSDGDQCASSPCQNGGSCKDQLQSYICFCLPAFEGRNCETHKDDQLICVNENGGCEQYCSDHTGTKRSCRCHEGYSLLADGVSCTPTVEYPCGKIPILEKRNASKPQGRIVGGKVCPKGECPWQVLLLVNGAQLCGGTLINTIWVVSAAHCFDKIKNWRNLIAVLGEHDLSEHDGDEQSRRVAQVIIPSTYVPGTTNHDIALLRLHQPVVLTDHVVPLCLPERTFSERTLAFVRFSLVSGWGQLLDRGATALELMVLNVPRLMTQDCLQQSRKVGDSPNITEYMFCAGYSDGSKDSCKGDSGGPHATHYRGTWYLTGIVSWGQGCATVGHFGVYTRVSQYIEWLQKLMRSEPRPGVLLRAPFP
Assay Endpoint: Ki (nM)

Sample answers from the record:
N=C(N)c1ccc2c(c1)[C@@H](c1ccccc1)C[C@@H](c1ccccc1-c1ccc(C(=O)O)cc1C(=O)O)N2 (racemic) : 290
N=C(N)c1ccc2[nH]c(-c3cc(C(CC(=O)O)C(=O)O)cc(-c4cccc(N)c4)c3O)nc2c1 (stereo not given) : 36
N=C(N)c1ccc2[nH]c(-c3cc(CC(=O)O)cc(-c4cccc([N+](=O)[O-])c4)c3O)cc2c1 : 4

1: N=C(N)c1ccc2[nH]c(-c3cc(C(CC(=O)O)C(=O)O)cc(-c4cc(Cl)ccc4O)c3O)nc2c1 (stereo not given)
2: N=C(N)c1ccc2ccc(CN(CCc3cnc[nH]3)C(=O)c3cccc4ccccc34)cc2c1
Exam item: Compare Ki: is it lower for 1 or for 2 ? Refer to your chosen entry by its label in the reply.
Marked response: 1
(1: 5.4 nM, 2: 305 nM)

P: CNC(=O)c1ccc(-c2cccc([C@@H]3C[C@](C)(c4ccccc4)c4cc(C(=N)N)ccc4N3)c2)c(C(=O)O)c1 (racemic)
Q: N=C(N)c1ccc2[nH]c(-c3cc(C(CC(=O)O)C(=O)O)cc(-c4ccccc4CO)c3O)nc2c1 (stereo not given)
R: N=C(N)c1ccc(CNC(=O)C2(NC(=O)[C@H](NCC(=O)O)C3CCCCC3)Cc3ccccc3C2)cc1
Exam item: Could you please sort these 3 entries by Ki from high to low? Give the labels in the order requested.
Marked response: R, P, Q

a: CN(C)Cc1ccc(-c2cccc([C@@H]3C[C@](C)(c4ccccc4)c4cc(C(=N)N)ccc4N3)c2)c(C(=O)O)c1 (racemic)
b: C[C@]1(c2ccccc2)C[C@@H](c2cccc(-c3ccc(N)cc3C(=O)O)c2)Nc2ccc(C(=N)N)cc21 (racemic)
c: CC(C)(C)c1ccc(-c2cc(C(CC(=O)O)C(=O)O)cc(-c3nc4cc(C(=N)N)ccc4[nH]3)c2O)cc1 (stereo not given)
Exam item: Could you please sort these 3 entries by Ki from high to low? Give the labels in the order requested.
Marked response: c, a, b

* * *

pKi: −log10 of the molar value.
Multi-source literature compilation: pKi on Coagulation factor VII (Homo sapiens).
Assay Endpoint: pKi

Sample answers from the record:
CCCCCC(=O)NCc1ccc(O)c(-c2cccc(-c3cc4cc(C(=N)N)ccc4[nH]3)c2O)c1 : 7.89
CC(C)CCN(Cc1ccc2ccc(C(=N)N)cc2c1)C(=O)c1ccc2ccccc2c1 : 6.11
CC(NC(=O)CNC(=O)Nc1ccc(C(=N)N)cc1)c1ccc(NC(=O)C2CC2)cc1 (stereo not drawn) : 7.33

a: CCCC(=O)Nc1cc(-c2ccc(C(N)=O)cc2C(=O)O)cc([C@@H]2C[C@](C)(c3ccccc3)c3cc(C(=N)N)ccc3N2)c1 (racemic)
b: N=C(N)c1ccc2[nH]c(-c3cc(C(CC(=O)O)C(=O)O)cc(-c4cc(Cl)ccc4Cl)c3O)nc2c1 (stereo not drawn)
Exam item: Compare pKi: is it lower for a or for b ? Refer to your chosen entry by its label in the reply.
Marked response: a
(a: 6.28, b: 6.60)

* * *

- Target Desc: Coagulation factor VII (Homo sapiens)
- Sequence (P08709 whole entry): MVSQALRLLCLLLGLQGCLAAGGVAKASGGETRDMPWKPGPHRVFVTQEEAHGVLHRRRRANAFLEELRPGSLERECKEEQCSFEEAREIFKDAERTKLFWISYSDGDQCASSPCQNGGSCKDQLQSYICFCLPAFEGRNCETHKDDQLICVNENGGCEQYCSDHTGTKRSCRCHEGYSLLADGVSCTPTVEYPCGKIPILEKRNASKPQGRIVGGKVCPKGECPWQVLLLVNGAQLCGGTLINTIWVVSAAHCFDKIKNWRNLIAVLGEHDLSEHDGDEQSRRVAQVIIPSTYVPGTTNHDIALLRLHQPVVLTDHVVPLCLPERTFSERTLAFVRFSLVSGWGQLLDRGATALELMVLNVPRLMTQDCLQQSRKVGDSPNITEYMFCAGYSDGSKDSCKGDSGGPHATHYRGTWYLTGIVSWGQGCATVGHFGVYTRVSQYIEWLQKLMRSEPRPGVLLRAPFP
Multi-source literature compilation: Ki on Coagulation factor VII (Homo sapiens).
Assay Endpoint: Ki (µM)

Sample answers from the record:
CC(=O)c1cccc(-c2cc(C(CC(=O)O)C(=O)O)cc(-c3nc4cc(C(=N)N)ccc4[nH]3)c2O)c1 (centres undefined) : 0.033
Cc1cccc(NC(=O)Cc2cc(C(CC(=O)O)C(=O)O)cc(-c3nc4cc(C(=N)N)ccc4[nH]3)c2O)c1 (centres undefined) : 0.054
Cc1nc(Cc2ccccc2)n(CC(=O)N[C@@H](CCCCN)B2O[C@@H]3C[C@@H]4C[C@@H](C4(C)C)[C@]3(C)O2)n1 : 7.16
COC(=O)Nc1ccc2c(c1)NC(=O)CCCC[C@H](NC(=O)/C=C/c1cc(Cl)ccc1-n1cnnn1)c1nc-2c[nH]1 : 3.19
COc1cc(C(Nc2ccc(C(=N)N)cc2)C(=O)NCc2ccccc2)c(S(=O)(=O)c2ccccc2)cc1OCc1ccccc1 (centres undefined) : 0.16

P: N=C(N)c1ccc2[nH]c(-c3cc(CC(=O)O)cc(-c4cc(CNC(N)=O)ccc4O)c3O)nc2c1
Q: CC(=O)Nc1cc(-c2ccc(C(N)=O)cc2C(=O)O)cc([C@@H]2C[C@](C)(c3ccccc3)c3cc(C(=N)N)ccc3N2)c1 (racemic)
R: N=C(N)c1ccc2c(c1)[C@@H](c1ccccc1)C[C@@H](c1cccc(-c3ccc(C(=O)O)cc3C(=O)O)c1)N2 (racemic)
S: CC(NC(=O)CNC(=O)Nc1ccc(C(=N)N)cc1)c1ccc(OCc2ccccc2)cc1 (centres undefined)
T: CC1CCCCN1CCCN(Cc1ccc2ccc(C(=N)N)cc2c1)C(=O)c1cccc2ccccc12 (centres undefined)
Exam item: Could you please sort these 5 entries by Ki from high to low? Give the labels in the order requested.
Marked response: T, Q, S, R, P
(T: 0.646 µM, Q: 0.23 µM, S: 0.133 µM, R: 0.089 µM, P: 0.014 µM)

I: CC(=O)Nc1cccc(-c2cc(C(CC(=O)O)C(=O)O)cc(-c3nc4ccc(C(=N)N)cc4[nH]3)c2O)c1 (centres undefined)
II: N=C(N)c1ccc2nc(-c3cc(C(CC(=O)O)C(=O)O)cc(-c4ccccc4[N+](=O)[O-])c3O)[nH]c2c1 (centres undefined)
III: Cc1ccc(-c2cc(C(CC(=O)O)C(=O)O)cc(-c3nc4ccc(C(=N)N)cc4[nH]3)c2O)cc1 (centres undefined)
Exam item: Hey, can you sort those compounds up there by Ki, smallest first? Give the labels in the order requested.
Marked response: II, I, III

I: C[C@H](NC(=O)CNC(=O)Nc1ccc(C(=N)N)c(F)c1)c1cccc(Br)c1
II: COc1cc([C@@H](Nc2ccc(C(=N)N)cc2)C(=O)N[C@H](C(=O)O)c2ccccc2)c(C(=O)Cc2ccccc2)cc1OCc1ccccc1
III: C[C@H](NC(=O)C(NC(=O)Nc1ccc(C(=N)N)cc1)c1ccccc1)c1cccc(Br)c1 (some centres undefined)
IV: CNC(=O)Nc1ccc(-c2cccc([C@@H]3C[C@](C)(c4ccccc4)c4cc(C(=N)N)ccc4N3)c2)c(C(=O)O)c1 (racemic)
V: CC(C)CNC(=O)c1ccc(-c2cccc([C@@H]3C[C@H](c4ccccc4)c4cc(C(=N)N)ccc4N3)c2)c(C(=O)O)c1 (racemic)
Exam item: Hey, can you sort those compounds up there by Ki, smallest first? Give the labels in the order requested.
Marked response: II, V, I, IV, III
